test: Pharmacokinetics in cynomolgus monkey; format: in vivo; conditions: male, plasma, iv, 10 mg/kg i.v. over 4 min, until 1 hour, lower limit of quantification, read-out: total CPT-11 concentration in blood plasma
Parameter: concentration at 1 h

[[record]]
test_smiles = "CCc1c2c(nc3ccc(OC(=O)N4CCC(N5CCCCC5)CC4)cc13)-c1cc3c(c(=O)n1C2)COC(=O)[C@]3(O)CC"
parameter = "concentration at 1 h"
observed_result = "< 1000 ng/mL"


---

test: Retentivity in blood; assay type: in vivo; conditions: female, plasma, iv; BALB/c mouse, 10 mg/kg i.v. tail, elapsed time 1 hr; read-out: Concentration in plasma of irinotecan hydrochloride
Parameter: concentration at 1 h (µg/mL)

[[record]]
test_smiles = "CCc1c2c(nc3ccc(OC(=O)N4CCC(N5CCCCC5)CC4)cc13)-c1cc3c(c(=O)n1C2)COC(=O)[C@]3(O)CC"
observed_result = 0.39

